experiment: Pharmacokinetic test in mice; assay type: in vivo, ICR mice; conditions: male, ICR, mouse, plasma, 5 mg/kg, PO - 5 mpk
// reported Tmax per item
Endpoint Label: Tmax (h)

>>> readout_number("Cc1cc(N2CC3(CN(C(=O)C(C)(C)O)C3)C2)cc2c(N(C)c3nc(-c4ccc(F)cc4)c(C#N)s3)c3c(nc12)C(O)CC3 (stereo not drawn) [Example E26]")
1.75
>>> readout_number("Cc1cc(N2CC3(CN(C(=O)C(C)(C)O)C3)C2)cc2c(N(C)c3nc(-c4ccc(F)cc4)c(C#N)s3)c3c(nc12)CCO3 [Example C27]")
6.67
>>> readout_number("CN(c1nc(-c2ccc(F)cc2)c(C#N)s1)c1c2c(nc3ncc(N4CC5(CN(C(=O)[C@@H]6CCOC6)C5)C4)cc13)CC2 [Example C17]")
0.5
